Record set: pKi | Alpha-1B adrenergic receptor (Rattus norvegicus) | literature, multiple sources.
// pKi is dimensionless: -log10 of concentration (M)

As a guide, the following entries are already answered.
[[record]]
compound = "COc1ccc(C)cc1N1CCN(CCNc2cnn(C)c(=O)c2)CC1"
measurement_kind = "pKi"
data_value = 7.08

[[record]]
compound = "O=C(O)C1CC=CCC1C(=O)NCC(O)CN1CCN(c2ccccc2O)CC1 (stereo not shown)"
measurement_kind = "pKi"
data_value = 5.01


Task: Which measured pKi belongs to "COc1ccccc1N1CCN(CCNc2cnn(C)c(=O)c2Br)CC1" , tested on Alpha-1B adrenergic receptor (Rattus norvegicus)?
Result: 8.23

Task: Hello, I am looking for reported pKi with Alpha-1B adrenergic receptor (Rattus norvegicus) for CC(C)Oc1ccccc1N1CCN(CC(O)CN2C(=O)C3CC4OC4CC3C2=O)CC1 (stereo not shown) . Could you help?
Result: 6.41

Task: // fetch Alpha-1B adrenergic receptor (Rattus norvegicus) pKi for "Cn1ncc(NCCCN2CCN(c3ccccc3F)CC2)c(Cl)c1=O"
Result: 7.48

Task: Query the reported pKi for Alpha-1B adrenergic receptor (Rattus norvegicus); item: CC(C)Oc1ccccc1N1CCN(CCCN2C(=O)C3CC(O)C(O)CC3C2=O)CC1 (stereo not shown)
Result: 6.90

Task: Provide the documented pKi with Alpha-1B adrenergic receptor (Rattus norvegicus) as the system for "Cn1ncc(NCCN2CCN(c3ccccc3O)CC2)cc1=O"
Result: 7.18

Task: What value of pKi on Alpha-1B adrenergic receptor (Rattus norvegicus) does "CCOc1cc(C)ccc1N1CCN(CCCNc2cnn(C)c(=O)c2Cl)CC1" have?
Result: 8.42

---

Literature compilation of pKi measurements on Alpha-1B adrenergic receptor (Rattus norvegicus, UniProt P15823).
Would you please state pKi, meaning minus log10 of the concentration in mol/L, as a bare number?

In the examples that follow, each entry is paired with its recorded pKi.
[[record]]
compound = "O=C1CCCC(=O)N1CCCN1CCN(c2ccccc2OCC(F)(F)F)CC1"
measured_target = "Alpha-1B adrenergic receptor (Rattus norvegicus, UniProt P15823)"
data_value = 7.33

[[record]]
compound = "COc1ccccc1N1CCN(CCNc2ccnn(CCN(C)C)c2=O)CC1"
measured_target = "Alpha-1B adrenergic receptor (Rattus norvegicus, UniProt P15823)"
data_value = 6.36

[[record]]
compound = "COc1ccccc1N1CCN(CCCNc2cnn(C)c(=O)c2Cl)CC1"
measured_target = "Alpha-1B adrenergic receptor (Rattus norvegicus, UniProt P15823)"
data_value = 7.49

[[record]]
compound = "COc1ccccc1N1CCN(CCNc2c(Cl)cnn(CCN(C)C)c2=O)CC1"
measured_target = "Alpha-1B adrenergic receptor (Rattus norvegicus, UniProt P15823)"
data_value = 7.80

[[record]]
compound = "O=C1C2CC=CCC2C(=O)N1CCC[N+]1([O-])CCN(c2ccccc2O)CC1 (stereo not shown)"
measured_target = "Alpha-1B adrenergic receptor (Rattus norvegicus, UniProt P15823)"
data_value = 5.96

[[record]]
compound = "CCOc1cc(C)ccc1N1CCN(CCCNc2ccnn(C)c2=O)CC1"
measured_target = "Alpha-1B adrenergic receptor (Rattus norvegicus, UniProt P15823)"
data_value = 7.87


Task: Query pKi on Alpha-1B adrenergic receptor (Rattus norvegicus, UniProt P15823) for "COc1cc(C)ccc1N1CCN(CCNc2cnn(C)c(=O)c2Cl)CC1"
Result: 7.50

Task: Missing value: pKi, Alpha-1B adrenergic receptor (Rattus norvegicus, UniProt P15823), entry "CCOc1ccccc1N1CCN(CCNc2cnn(C)c(=O)c2)CC1" . Fill in?
Result: 6.99

Task: Identify the measured pKi of CC(C)Oc1ccccc1N1CCN(CC(O)CNC(=O)C2CC=CCC2C(=O)O)CC1 (stereo not shown) for Alpha-1B adrenergic receptor (Rattus norvegicus, UniProt P15823).
Result: 5.75

---

Values of pKi for UniProt:P15823, collected from a number of published sources:
Please keep in mind that pKi is minus log10 of the molar concentration; only the number is needed.

Below: 6 molecules and their reported pKi.
[[record]]
molecule = "Cn1nccc(NCCN2CCN(c3ccccc3O)CC2)c1=O"
data_value = 7.18

[[record]]
molecule = "COc1ccccc1N1CCN(CCNc2cn[nH]c(=O)c2Cl)CC1"
data_value = 8.27

[[record]]
molecule = "Cn1nccc(NCCCN2CCN(c3ccccc3F)CC2)c1=O"
data_value = 7.52

[[record]]
molecule = "COc1ccccc1N1CCN(CCCCNc2c(Cl)cnn(C)c2=O)CC1"
data_value = 8.67

[[record]]
molecule = "Cn1nccc(NCCN2CCN(c3cccc(C(F)(F)F)c3)CC2)c1=O"
data_value = 6.76

[[record]]
molecule = "O=C1CCCC(=O)N1CCC[N+]1([O-])CCN(c2ccccc2O)CC1"
data_value = 5.31


Task: Under UniProt:P15823: pKi value of "CCOc1cc(C)ccc1N1CCN(CCCNc2cnn(C)c(=O)c2)CC1" ?
Result: 7.63

Task: Recall the recorded pKi for "Cn1nccc(NCCN2CCN(c3ccccc3F)CC2)c1=O" with UniProt:P15823 and state it.
Result: 7.67

Task: Lookup: pKi / UniProt:P15823 / "COc1ccccc1N1CCN(CCCN(C)c2c(Cl)cnn(C)c2=O)CC1"
Result: 7.89

Task: Please provide the recorded pKi for "Cn1ncc(Cl)c(NCCN2CCN(c3ccccc3OCc3ccccc3)CC2)c1=O" , tested on UniProt:P15823.
Result: 8.60

Task: Kindly state the measured pKi obtained for "COc1ccccc1N1CCN(CCNc2c(Cl)cnn(CCO)c2=O)CC1" with UniProt:P15823.
Result: 8.62

Task: UniProt:P15823 / pKi / "O=C(O)CCCC(=O)NCCCN1CCN(c2ccccc2O)CC1" : value?
Result: 4.89

Task: API: value(readout=pKi, system=UniProt:P15823) for record "COc1ccccc1N1CCN(CCCCNc2ccn[nH]c2=O)CC1"
Result: 8.33
